Assign MIC to each entry below.
Test system: Bacteroides spp. spontaneous mutants
Assay: Broth microdilution MIC of spontaneous mutants
Type: cell-based
Conditions: B. vulgatus ATCC 8482; selected on rifaximin 4X MIC; Colony B
Excerpt: Select isolates were subcultured onto agar containing drug at the selection concentration, were identified by MALDI, and were frozen for broth microdilution MIC testing as described below. […]

Request: Please look up its MIC: COc1c(N2C[C@@H]3CCCN[C@@H]3C2)c(F)cc2c(=O)c(C(=O)O)cn(C3CC3)c12
Result: 0.25 µg/mL

Request: Moving on to the next compound: CO[C@H]1/C=C/O[C@@]2(C)Oc3c(C)c(O)c4c(O)c(c5c(nc6cc(C)ccn65)c4c3C2=O)NC(=O)/C(C)=C\C=C\[C@H](C)[C@H](O)[C@@H](C)[C@@H](O)[C@@H](C)[C@H](OC(C)=O)[C@@H]1C
Result: 64 µg/mL

Request: Moving on to the next compound: CCC[C@@H]1C[C@@H](C(=O)N[C@@H]([C@H]2O[C@H](SC)[C@H](O)[C@@H](O)[C@H]2O)[C@H](C)Cl)N(C)C1
Result: 0.12 µg/mL

Request: Moving on to the next compound: Cc1ncc([N+](=O)[O-])n1CCO
Result: 1 µg/mL
